The following molecules have recorded IC50 on HCV RdRp (NS5B) (UniProt P26663).
Sequence (P26663 whole entry, looked up): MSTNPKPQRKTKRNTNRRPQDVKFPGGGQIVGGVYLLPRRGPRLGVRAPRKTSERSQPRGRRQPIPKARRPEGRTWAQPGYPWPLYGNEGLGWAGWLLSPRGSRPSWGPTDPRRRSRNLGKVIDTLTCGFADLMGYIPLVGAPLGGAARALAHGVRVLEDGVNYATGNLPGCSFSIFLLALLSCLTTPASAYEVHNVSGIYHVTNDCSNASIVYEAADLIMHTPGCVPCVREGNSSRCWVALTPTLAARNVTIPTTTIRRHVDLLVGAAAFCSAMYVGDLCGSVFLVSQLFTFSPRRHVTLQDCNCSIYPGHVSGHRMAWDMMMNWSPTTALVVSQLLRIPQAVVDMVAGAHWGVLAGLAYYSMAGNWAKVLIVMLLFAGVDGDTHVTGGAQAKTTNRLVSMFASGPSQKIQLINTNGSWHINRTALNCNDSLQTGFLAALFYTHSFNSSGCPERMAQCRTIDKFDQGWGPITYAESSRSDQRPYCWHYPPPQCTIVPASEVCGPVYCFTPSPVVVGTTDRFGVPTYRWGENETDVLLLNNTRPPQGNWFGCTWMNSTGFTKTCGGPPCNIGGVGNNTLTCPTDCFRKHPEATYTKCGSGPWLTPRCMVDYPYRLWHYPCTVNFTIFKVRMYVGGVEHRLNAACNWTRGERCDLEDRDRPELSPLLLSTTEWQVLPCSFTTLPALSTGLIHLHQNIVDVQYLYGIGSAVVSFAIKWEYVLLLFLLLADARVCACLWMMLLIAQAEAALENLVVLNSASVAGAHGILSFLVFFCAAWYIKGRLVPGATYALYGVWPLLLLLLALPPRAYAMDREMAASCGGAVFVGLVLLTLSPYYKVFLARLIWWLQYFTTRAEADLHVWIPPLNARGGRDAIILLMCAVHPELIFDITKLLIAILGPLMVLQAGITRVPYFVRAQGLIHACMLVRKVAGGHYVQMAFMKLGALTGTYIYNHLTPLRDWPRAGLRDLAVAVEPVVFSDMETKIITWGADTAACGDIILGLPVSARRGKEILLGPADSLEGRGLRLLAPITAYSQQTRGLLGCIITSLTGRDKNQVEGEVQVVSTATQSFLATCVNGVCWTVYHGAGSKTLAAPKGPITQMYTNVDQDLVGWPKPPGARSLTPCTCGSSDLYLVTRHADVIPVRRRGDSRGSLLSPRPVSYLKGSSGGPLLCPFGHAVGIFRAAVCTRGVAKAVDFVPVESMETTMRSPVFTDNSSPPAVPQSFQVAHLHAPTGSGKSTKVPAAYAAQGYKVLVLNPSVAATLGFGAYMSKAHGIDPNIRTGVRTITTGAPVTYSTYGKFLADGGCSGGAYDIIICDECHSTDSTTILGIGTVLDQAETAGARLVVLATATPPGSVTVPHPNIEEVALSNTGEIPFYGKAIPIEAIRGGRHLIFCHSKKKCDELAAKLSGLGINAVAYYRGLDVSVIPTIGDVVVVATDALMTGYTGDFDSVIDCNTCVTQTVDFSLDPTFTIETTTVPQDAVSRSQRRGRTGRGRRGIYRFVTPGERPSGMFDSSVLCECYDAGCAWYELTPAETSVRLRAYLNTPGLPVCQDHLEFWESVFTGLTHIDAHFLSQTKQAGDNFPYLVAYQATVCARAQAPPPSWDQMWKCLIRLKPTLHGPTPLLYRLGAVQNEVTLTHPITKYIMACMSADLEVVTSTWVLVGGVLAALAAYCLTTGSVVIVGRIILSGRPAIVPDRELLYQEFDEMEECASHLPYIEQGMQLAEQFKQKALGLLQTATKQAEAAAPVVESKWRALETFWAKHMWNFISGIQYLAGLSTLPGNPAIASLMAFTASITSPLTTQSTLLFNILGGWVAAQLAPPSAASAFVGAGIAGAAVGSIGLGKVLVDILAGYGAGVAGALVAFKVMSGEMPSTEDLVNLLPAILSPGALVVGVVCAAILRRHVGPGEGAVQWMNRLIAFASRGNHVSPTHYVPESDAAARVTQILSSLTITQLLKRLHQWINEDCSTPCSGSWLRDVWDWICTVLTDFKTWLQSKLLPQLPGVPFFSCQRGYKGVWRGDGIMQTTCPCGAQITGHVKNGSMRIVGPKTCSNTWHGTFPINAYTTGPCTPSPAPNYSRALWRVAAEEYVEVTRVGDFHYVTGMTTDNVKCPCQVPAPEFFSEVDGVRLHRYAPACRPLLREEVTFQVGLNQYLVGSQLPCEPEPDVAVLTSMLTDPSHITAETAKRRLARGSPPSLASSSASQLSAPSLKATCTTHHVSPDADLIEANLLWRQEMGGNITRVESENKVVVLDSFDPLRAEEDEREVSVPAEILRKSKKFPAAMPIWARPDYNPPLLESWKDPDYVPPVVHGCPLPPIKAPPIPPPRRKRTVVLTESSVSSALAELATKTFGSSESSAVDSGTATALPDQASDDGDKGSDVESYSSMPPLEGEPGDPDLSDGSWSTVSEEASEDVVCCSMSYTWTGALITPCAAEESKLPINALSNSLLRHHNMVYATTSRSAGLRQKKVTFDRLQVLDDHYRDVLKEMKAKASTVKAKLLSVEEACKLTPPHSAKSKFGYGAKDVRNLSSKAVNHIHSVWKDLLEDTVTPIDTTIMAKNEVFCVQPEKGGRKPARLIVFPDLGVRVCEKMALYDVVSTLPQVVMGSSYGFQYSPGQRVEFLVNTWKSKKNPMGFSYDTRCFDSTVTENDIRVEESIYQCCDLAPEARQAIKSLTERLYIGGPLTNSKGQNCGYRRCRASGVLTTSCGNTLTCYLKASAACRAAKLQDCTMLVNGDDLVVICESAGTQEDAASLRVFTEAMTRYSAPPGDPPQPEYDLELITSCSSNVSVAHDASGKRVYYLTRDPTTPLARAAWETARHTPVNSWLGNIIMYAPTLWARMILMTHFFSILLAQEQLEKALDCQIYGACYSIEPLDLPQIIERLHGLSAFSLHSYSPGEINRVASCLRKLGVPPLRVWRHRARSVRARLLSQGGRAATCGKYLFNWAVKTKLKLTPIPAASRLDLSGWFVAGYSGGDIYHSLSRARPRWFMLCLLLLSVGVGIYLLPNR

Previously resolved entries follow.
Molecule | Quantity Name | Result
Cc1ccc(NC(=O)C2CCCN2C(=O)OCC2c3ccccc3-c3ccccc32)cc1 (stereo not shown) [Compound 86] | IC50 | > 50 µM
NCCCC[C@@H](NC(=O)NCc1ccc(Cl)c(Cl)c1)C(=O)Nc1ccc(C2CCCCC2)cc1 | IC50 | 10 to 50 µM
NCCCC[C@H](NC(=O)OCC1c2ccccc2-c2ccccc21)C(=O)Nc1cccc(OCc2ccccc2)c1 | IC50 | 10 to 50 µM
Cc1ccc(NC(=O)C(CCCCN)NC(=O)Nc2ccc(Cc3ccccc3)cc2)cc1 (stereo not shown) | IC50 | 10 to 50 µM
NCCCC[C@H](NC(=O)OCC1c2ccccc2-c2ccccc21)C(=O)Nc1ccc(OCc2ccccc2)c(Cl)c1 | IC50 | < 10 µM
Cc1ccc(NC(=O)[C@H](CCCCN)NC(=O)OCC2c3ccccc3-c3ccccc32)cn1 | IC50 | > 50 µM

Consider now this further molecule.
// returns IC50 for Cc1ccc(NC(=O)C(CCO)NC(=O)OCC2c3ccccc3-c3ccccc32)cc1 (stereo not shown) with HCV RdRp (NS5B) (UniProt P26663); value = > 50 µM
